Measured values drawn from patent US20100173910A1 for this set.

Target: purified recombinant CDC25C enzyme (MBP-CDC25C protein) (Homo sapiens, UniProt P30307)
Sequence (P30307 1-473): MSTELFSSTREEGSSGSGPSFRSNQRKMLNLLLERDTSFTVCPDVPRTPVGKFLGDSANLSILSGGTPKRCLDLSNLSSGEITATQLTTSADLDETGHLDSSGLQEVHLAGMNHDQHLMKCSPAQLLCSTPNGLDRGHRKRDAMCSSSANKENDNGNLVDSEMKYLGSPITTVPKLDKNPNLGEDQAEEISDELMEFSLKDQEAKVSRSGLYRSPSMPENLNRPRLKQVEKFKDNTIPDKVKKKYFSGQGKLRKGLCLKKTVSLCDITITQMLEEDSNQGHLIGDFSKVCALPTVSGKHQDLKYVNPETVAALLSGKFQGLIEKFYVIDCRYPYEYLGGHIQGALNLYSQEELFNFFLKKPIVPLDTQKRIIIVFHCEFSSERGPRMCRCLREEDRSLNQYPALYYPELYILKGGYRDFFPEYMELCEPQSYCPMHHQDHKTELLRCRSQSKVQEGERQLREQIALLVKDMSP
Experiment: Phosphatase activity of the purified recombinant CDC25C enzyme (OMFP dephosphorylation, fluorescence)
Conditions: OMFP 500 μM, 4 hours at 30° C., three independent experiments; nested upper bounds; read-out: IC50 for the phosphatase activity of the purified recombinant CDC25-C enzyme
pIC50: −log10 of the molar value.
endpoint_name: pIC50

Worked examples follow.
compound	pIC50
O=c1c(NCCNc2cc(N3CCCC3)nc(N3CCCC3)n2)c(Nc2cccc(-c3nnn[nH]3)c2)c1=O [Example 12]	≥ 5.30
COc1ccc(Nc2c(NCCNc3cc(N4CCCC4)nc(N4CCCC4)n3)c(=O)c2=O)cc1 [Example 18]	≥ 6.00
COc1c(NCCN(C)CCNc2cc(N3CCCC3)nc(N3CCCC3)n2)c(=O)c1=O [Example 6]	≥ 5.30
Cl.NCc1ccc(Nc2c(NCCNc3cc(N4CCCC4)nc(N4CCCC4)n3)c(=O)c2=O)cc1 [Example 28, hydrochloride]	≥ 5.30

Give recorded pIC50. O=c1c(NCCNc2cc(N3CCCC3)nc(N3CCCC3)n2)c(N2CCOCC2)c1=O [Example 4]
≥ 5.30

* * *

target: purified recombinant CDC25C enzyme (MBP-CDC25C protein) (Homo sapiens, UniProt P30307); test: Phosphatase activity of the purified recombinant CDC25C enzyme (OMFP dephosphorylation, fluorescence); conditions: OMFP 500 μM, 4 hours at 30° C., three independent experiments; nested upper bounds; read-out: IC50 for the phosphatase activity of the purified recombinant CDC25-C enzyme
pIC50: −log10 of the molar value.
endpoint_name: pIC50

molecule	result
O=c1c(NCCNc2cc(N3CCCC3)nc(N3CCCC3)n2)c(Nc2ccc(O)cc2)c1=O [Example 27]	≥ 4.82
O=c1c(NCCNc2cc(N3CCCC3)nc(N3CCCC3)n2)c(NCc2ccc(Cl)cc2)c1=O [Example 5]	≥ 6.00

Please give measured pIC50 of the following entry: O=c1c(NCCNc2cc(N3CCCC3)nc(N3CCCC3)n2)c(Nc2ccc(Cl)c(C(F)(F)F)c2)c1=O [Example 10]
≥ 4.82

Quote pIC50 reported for CC(=O)Nc1ccc(Nc2c(NCCNc3cc(N4CCCC4)nc(N4CCCC4)n3)c(=O)c2=O)cc1 [Example 13] please.
≥ 5.30

Given the molecule COc1c(NCCNc2cc(N3CCCC3)nc(N3CCCC3)n2)c(=O)c1=O [Example 1] , write its reported pIC50.
≥ 5.30

Consider the molecule CC(=O)c1ccc(Nc2c(NCCNc3cc(N4CCCC4)nc(N4CCCC4)n3)c(=O)c2=O)cc1 [Example 19] . State its measured pIC50.
≥ 6.00

Provide only the value of recorded pIC50 for CN(CCNc1cc(N2CCCC2)nc(N2CCCC2)n1)CCNc1c(O)c(=O)c1=O [Example 7]
≥ 5.30
